All figures here come from paper PMC10685803.

tested.target: T1, DAXX Helical Bundle domain (DHB_(DAXX), residues 55-144 hDAXX) (human, UniProt Q9UER7 55-144)
T1 sequence (looked up): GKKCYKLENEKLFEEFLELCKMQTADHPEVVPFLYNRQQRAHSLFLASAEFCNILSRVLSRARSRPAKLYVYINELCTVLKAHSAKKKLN
measurement.notes: ITC
reported.property: dH (kcal/mol)
Just the number in kcal/mol, nothing appended.

Reference set (2 entries):
PENRIAKKMLLEEIKANL (peptide, UniProt P46100 1267-1284, looked up) [ATRX (1267–1284) peptide]    -9.3
PVTVDDDDDDNDPENRIAKKMLLEEIKANLSSDED (peptide, UniProt P46100 1255-1289, looked up) [ATRX (1255–1289) peptide]    -12.2

Then there is this binder:
Prompt line: Please look at this binder and report its dH: DAXX Interacting Domain of ATRX (DID_(ATRX), residues 1190-1325 hATRX) (domain or fragment, human, UniProt P46100 1190-1325, looked up) RTSTKRKQADITSSSSSDIEDDDQNSIGEGSSDEQKIKPVTENLVLSSHTGFCQSSGDEALSKSVPVTVDDDDDDNDPENRIAKKMLLEEIKANLSSDEDGSSDDEPEEGKKRTGKQNEENPGDEEAKNQVNSESD
Response line: -11.7
